Origin of measurements: the supplement of paper PMC4466140

Biological target: ScBzz1-D1
Assay: SPOT peptide array binding signal intensity (averaged, normalized) (arbitrary units (background-subtracted, floor 0; scale differs between SH3 domains)); higher = stronger binding of the SH3 domain to the peptide
Measured SPOT peptide array binding signal intensity by item
measured.attribute: SPOT peptide array binding signal intensity

[
  {
    "binder": "LLGRKRPVMERVVDI",
    "reported.result": 29.5
  },
  {
    "binder": "RSVKRPRRAPRPVVS",
    "reported.result": 11.5
  },
  {
    "binder": "SHRLWLYAAPKRPKT",
    "reported.result": 42
  },
  {
    "binder": "WRPRIVPILPYITRL",
    "reported.result": 1.5
  },
  {
    "binder": "SRYRRPLTLLLLKPF",
    "reported.result": 13
  },
  {
    "binder": "PPIPNAPLSPAPAVP",
    "reported.result": 4
  },
  {
    "binder": "IKTRSVPKIPSIESV",
    "reported.result": 26
  }
]
